- Test system: MYLK2
- Experimental context: concentration: 1 μM,replicates: in singlicate; n = 1;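 further: KINOMEscan kinase panel screen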
Please provide measured %Inh for the entries that follow.
// note: answer is a bare numeric in %

Request: Consider the compound `Cn1ccc2ncnc(Oc3ccc(NC(=O)Nc4ccnc(C(F)(F)F)c4)c(Cl)c3)c21` . State its measured %Inh.
Response: 0

Request: Consider the compound `CSc1nccc(-c2c(-c3ccc(F)cc3)ncn2CCCN2CCOCC2)n1.Cl` . State its measured %Inh.
Response: 0

Request: Consider the compound `Cl.Cl.NC[C@H](CC1CCCCC1)NC(=O)c1ccc(-c2ccnc3[nH]ccc23)s1` . State its measured %Inh.
Response: 62

Request: Consider the compound `Cn1ccc2ncnc(Oc3ccc(NC(=O)Nc4cccc(C(F)(F)F)c4)c(Cl)c3)c21` . State its measured %Inh.
Response: 21

Request: Consider the compound COc1cc(Nc2nccc(N3CCC(NC(=O)c4cccc(C#N)c4)C3)n2)cc(OC)c1OC (centres unmarked) . State its measured %Inh.
Response: 0

Request: Consider the compound CS(=O)c1ccc(-c2coc3ccc(-c4n[nH]c(=O)o4)cc23)cc1 (centres unmarked) . State its measured %Inh.
Response: 20

Request: Consider the compound `C[C@@H](Oc1cc(-n2cnc3ccc(-c4ccncc4)cc32)sc1C(N)=O)c1ccccc1Cl` . State its measured %Inh.
Response: 48

Request: Consider the compound `Cn1ccc2ncnc(Oc3ccc(NC(=O)Nc4cncc(C(F)(F)F)c4)c(Cl)c3)c21` . State its measured %Inh.
Response: 0

----------
Please provide measured %Inh for the entries that follow.
- Test system: DCAMKL3
- Construct: gene DCLK3
- Experimental context: concentration: 1 μM,replicates: in singlicate; n = 1
Quote the value and follow it with the unit of measurement.

Request: Quote DCAMKL3 %Inh for entry CCn1c(-c2nonc2N)nc2cncc(CNC3CCNCC3)c21.Cl [SB-747651] .
Response: 7%

Request: Quote DCAMKL3 %Inh for entry `CN(c1ccccc1CNc1nc(Nc2ccc3c(c2)CC(=O)N3)ncc1C(F)(F)F)S(C)(=O)=O` .
Response: 94.8%

Request: Quote DCAMKL3 %Inh for entry N#Cc1cccc(C(=O)NC2CCN(c3ccnc(Nc4ccc(F)cc4)n3)C2)c1 (stereo not drawn) [GSK1379708] .
Response: 9%

Request: Quote DCAMKL3 %Inh for entry COc1cccc(CNC(=O)NC2CCN(c3ccnc(Nc4cc(OC)c(OC)c(OC)c4)n3)C2)c1 (stereo not drawn) [GSK1379765] .
Response: 0%

Request: Quote DCAMKL3 %Inh for entry CCN1CCN(CCCC(=O)Nc2n[nH]c3nc(-c4ccc(O)cc4)c(Br)cc23)CC1 [SB-731579] .
Response: 99.1%

Request: Quote DCAMKL3 %Inh for entry CCn1c(-c2nonc2N)nc2cncc(Br)c21 [SB-738004] .
Response: 7%

Request: Quote DCAMKL3 %Inh for entry O=C(Nc1n[nH]c2cc(-c3ccco3)ccc12)C1CC1 [SB-737447] .
Response: 0%

Request: Quote DCAMKL3 %Inh for entry CCCC(=O)Nc1n[nH]c2ncccc12 [SB-601436] .
Response: 0%

Request: Quote DCAMKL3 %Inh for entry COc1ccc(Nc2nccc(N3CCC(NC(=O)c4cccc(C#N)c4)C3)n2)cc1 (stereo not drawn) [GSK1379730] .
Response: 0%

----------
- System: DAPK3
- Experimental context: concentration: 1 μM,replicates: in singlicate; n = 1
Records here are stratified by %Inh; strata: c1 = under 4%, c2 = from 4% up to 20%, c3 = 20% and over

Request: Dear colleague, I would appreciate it if you could identify the bin for Cc1n[nH]c2cc(Nc3ccnc(Nc4cccc(CN5CCOCC5)c4)n3)ccc12 [GW682569] and reply at your convenience.
Response: c3

Request: Dear colleague, I would appreciate it if you could identify the bin for N#Cc1cccc(C(=O)NC2CCN(c3ccnc(Nc4ccc(F)cc4)n3)C2)c1 (centres unmarked) [GSK1379708] and reply at your convenience.
Response: c2

Request: Dear colleague, I would appreciate it if you could identify the bin for CNC(=O)c1ccccc1Nc1nc(Nc2cccc(CS(C)(=O)=O)c2)ncc1C.O=CO [GSK1520489] and reply at your convenience.
Response: c3

Request: Dear colleague, I would appreciate it if you could identify the bin for `O=C(NOCC1CC1)c1cc(Br)c(F)c(F)c1Nc1ccc(I)cc1Cl` and reply at your convenience.
Response: c1

Request: Dear colleague, I would appreciate it if you could identify the bin for Nc1nccc(-c2ccc3c(N)n[nH]c3c2)n1 [GSK1034945] and reply at your convenience.
Response: c2

Request: Dear colleague, I would appreciate it if you could identify the bin for CC(C)S(=O)(=O)N1CCN(Cc2ccc3c(c2)nc(NC(=O)c2ccsc2)n3C[C@H](O)c2ccccc2)CC1 [GW635815] and reply at your convenience.
Response: c3

Request: Dear colleague, I would appreciate it if you could identify the bin for `CS(=O)(=O)c1cccc(CNc2nc(Nc3ccc4c(c3)[C@@H]3C[C@@H]4CNC3=O)ncc2C(F)(F)F)c1` and reply at your convenience.
Response: c2

Request: Dear colleague, I would appreciate it if you could identify the bin for CN1CCN(CCCNc2nccc(-c3c(-c4ccc(F)cc4)nn4cc(C(N)=O)ccc34)n2)CC1 [GW622475] and reply at your convenience.
Response: c2

Request: Dear colleague, I would appreciate it if you could identify the bin for `Cn1ccc2ncnc(Oc3ccc(NC(=O)Nc4cncc(C(F)(F)F)c4)c(Cl)c3)c21` and reply at your convenience.
Response: c1

Request: Dear colleague, I would appreciate it if you could identify the bin for `Cc1ccc(C(=O)Nc2ccc(Oc3ccc4nc(NC(=O)C5CC5)cn4c3)c(F)c2)c(=O)n1-c1ccccc1` and reply at your convenience.
Response: c1

Request: Dear colleague, I would appreciate it if you could identify the bin for `CN(c1cccc(CNc2nc(Nc3ccc4c(c3)CC(=O)N4)ncc2C(F)(F)F)c1)S(C)(=O)=O` and reply at your convenience.
Response: c1

Request: Dear colleague, I would appreciate it if you could identify the bin for `NC(=O)c1ccc(-c2cc3ncnc(SCC(=O)O)c3s2)cc1` and reply at your convenience.
Response: c2

Request: Dear colleague, I would appreciate it if you could identify the bin for `O=C(Nc1ccccc1)c1cccc(Oc2ccc3nccn3n2)c1` and reply at your convenience.
Response: c1

Request: Dear colleague, I would appreciate it if you could identify the bin for C[C@@H](Oc1cc(-n2cnc3cc(-c4cnn(C)c4)ccc32)sc1C(N)=O)c1ccccc1Cl [GSK580432] and reply at your convenience.
Response: c3

Request: Dear colleague, I would appreciate it if you could identify the bin for COc1cc2ncn(-c3cc(OCC4CCCCC4)c(C(N)=O)s3)c2cc1OC [GSK204559] and reply at your convenience.
Response: c3

Request: Dear colleague, I would appreciate it if you could identify the bin for COc1cc(Nc2nccc(N3CCC(NC(=O)c4cccc(C#N)c4)C3)n2)cc(OC)c1OC (centres unmarked) [GSK1379751] and reply at your convenience.
Response: c2

----------
- System: ASK2
- Construct: gene MAP3K6
- Experimental context: concentration: 1 μM,replicates: in singlicate; n = 1
Please provide measured %Inh for the entries that follow.
// note: answer is a bare numeric in %

Request: Consider the molecule `CC(=O)Nc1ccc(-c2cc3ncnc(SCC(=O)O)c3s2)cc1` . State its measured %Inh.
Response: 0

Request: Consider the molecule `Cc1cccc(-c2nc(Nc3ccncc3)c3sccc3n2)n1` . State its measured %Inh.
Response: 29

Request: Consider the molecule `CCn1c(-c2nonc2N)nc2cncc(Br)c21` . State its measured %Inh.
Response: 0

Request: Consider the molecule `Cc1cccc2c(-c3ccncc3)c(-c3ccc(F)cc3)nn12.Cl` . State its measured %Inh.
Response: 0

Request: Consider the molecule `O=C(Nc1ccc(Oc2ccc3nc(NC(=O)C4CC4)cn3n2)c(F)c1)c1cccn(-c2ccccc2)c1=O` . State its measured %Inh.
Response: 0

Request: Consider the molecule `CN(c1cccc(CNc2nc(Nc3ccc4c(c3)CC(=O)N4)ncc2C(F)(F)F)c1)S(C)(=O)=O` . State its measured %Inh.
Response: 0

----------
- Test system: CAMK1B
- Experimental context: concentration: 1 μM,replicates: in singlicate; n = 1
Please provide measured %Inh for the entries that follow.
// note: answer is a bare numeric in %

Request: Consider the molecule N#Cc1cccc(C(=O)NC2CCN(c3ccnc(Nc4ccc(F)cc4)n3)C2)c1 (centres unmarked) . State its measured %Inh.
Response: 0

Request: Consider the molecule `Cc1ccc(C(=O)Nc2ccc(Oc3ccc4nc(NC(=O)C5CC5)cn4c3)c(F)c2)c(=O)n1-c1ccccc1` . State its measured %Inh.
Response: 0

Request: Consider the molecule CCNCC(Cc1ccccc1)NC(=O)c1cc(Br)c(-c2ccnc3[nH]ccc23)s1.Cl.Cl (centres unmarked) . State its measured %Inh.
Response: 28

Request: Consider the molecule `NC(=O)Nc1sc(-c2ccc(F)cc2)cc1C(N)=O` . State its measured %Inh.
Response: 34

Request: Consider the molecule `COC(=O)Nc1nc2cc(Oc3ccc(NC(=O)Nc4cc(C(F)(F)F)ccc4Cl)cc3)ccc2[nH]1.Cl` . State its measured %Inh.
Response: 0

Request: Consider the molecule `CC(=O)c1c(-c2ccncc2)[nH]c(-c2ccncc2)c1C` . State its measured %Inh.
Response: 0

Request: Consider the molecule `CCn1c(-c2nonc2N)nc2cncc(Br)c21` . State its measured %Inh.
Response: 34

Request: Consider the molecule `Cn1ccc2ncnc(Oc3ccc(NC(=O)Nc4ccnc(C(F)(F)F)c4)c(Cl)c3)c21` . State its measured %Inh.
Response: 0

Request: Consider the molecule `C[C@@H](Oc1cc(-n2cnc3cc(-c4cnn(C)c4)ccc32)sc1C(N)=O)c1ccccc1Cl` . State its measured %Inh.
Response: 22

Request: Consider the molecule `Cl.c1ccc(Oc2ccc(Nc3ccnc4cc(-c5ccc(CN6CCNCC6)o5)ccc34)cc2)nc1` . State its measured %Inh.
Response: 0

Request: Consider the molecule `CC(=O)Nc1ccc(-c2cc3ncnc(SCC(=O)O)c3s2)cc1` . State its measured %Inh.
Response: 0

Request: Consider the molecule `Cn1ccc2ncnc(Oc3ccc(NC(=O)Nc4cncc(C(F)(F)F)c4)c(Cl)c3)c21` . State its measured %Inh.
Response: 0

Request: Consider the molecule `CN(c1cccc(CNc2nc(Nc3ccc4c(c3)CC(=O)N4)ncc2C(F)(F)F)c1)S(C)(=O)=O` . State its measured %Inh.
Response: 9

Request: Consider the molecule `Cc1cccc2c(-c3ccncc3)c(-c3ccc(F)cc3)nn12.Cl` . State its measured %Inh.
Response: 0

Request: Consider the molecule `C[C@@H]1CNc2c(sc3ccc4nc(-c5ccc(O)cc5)ccc4c23)C(=O)N1` . State its measured %Inh.
Response: 13

Request: Consider the molecule `OCCn1cc(-c2cnc3nnn(Cc4ccc5ncccc5c4)c3n2)cn1` . State its measured %Inh.
Response: 0

Request: Consider the molecule `O=C(Nc1ccc(Oc2ccc3nc(NC(=O)C4CC4)cn3n2)c(F)c1)c1cccn(-c2ccccc2)c1=O` . State its measured %Inh.
Response: 0

Request: Consider the molecule `COc1cc2ncn(-c3cc(OCC4CCCCC4)c(C(N)=O)s3)c2cc1OC` . State its measured %Inh.
Response: 6

Request: Consider the molecule `CC(C)S(=O)(=O)N1CCN(Cc2ccc3c(c2)nc(NC(=O)c2ccsc2)n3C[C@H](O)c2ccccc2)CC1` . State its measured %Inh.
Response: 0

Request: Consider the molecule `O=C1NCCc2[nH]c(-c3ccncc3)cc21` . State its measured %Inh.
Response: 1

Request: Consider the molecule `Cn1ccc2ncnc(Oc3ccc(NC(=O)Nc4cc(C(C)(C)C)on4)c(Cl)c3)c21` . State its measured %Inh.
Response: 0

Request: Consider the molecule `CSc1nccc(-c2c(-c3ccc(F)cc3)ncn2CCCN2CCOCC2)n1.Cl` . State its measured %Inh.
Response: 0

Request: Consider the molecule `Cc1ccc2c(-c3ccnc(Nc4ccc(C(F)(F)F)cc4)n3)cnn2n1` . State its measured %Inh.
Response: 0

Request: Consider the molecule `CS(=O)(=O)c1cccc(CNc2nc(Nc3ccc4c(c3)[C@@H]3C[C@@H]4CNC3=O)ncc2C(F)(F)F)c1` . State its measured %Inh.
Response: 19

Request: Consider the molecule `COc1cccc(C2=C(Nc3cccc(Cl)c3)C(=O)NC2=O)c1` . State its measured %Inh.
Response: 29

Request: Consider the molecule `Cn1ccc2ncnc(Oc3ccc(NC(=O)Nc4cnn(C(C)(C)C)c4)c(Cl)c3)c21` . State its measured %Inh.
Response: 9

Request: Consider the molecule CC(C(=O)NC1CCN(c2ccnc(Nc3ccc(F)cc3)n2)C1)c1ccc(Cl)cc1 (centres unmarked) . State its measured %Inh.
Response: 37

Request: Consider the molecule `CNC(=O)c1ccccc1Nc1nc(Nc2cccc(CS(C)(=O)=O)c2)ncc1C.O=CO` . State its measured %Inh.
Response: 14

Request: Consider the molecule `O=C(Nc1cccc(Oc2ccc3nccn3n2)c1)Nc1cccc(C(F)(F)F)c1` . State its measured %Inh.
Response: 0

Request: Consider the molecule `CN(c1ccccc1CNc1nc(Nc2ccc3c(c2)CC(=O)N3)ncc1C(F)(F)F)S(C)(=O)=O` . State its measured %Inh.
Response: 0

Request: Consider the molecule `Cl.Nc1n[nH]c2cc(-c3ccccn3)ccc12` . State its measured %Inh.
Response: 0

Request: Consider the molecule `COc1cc2c(Nc3ccc(NC(=O)c4ccccc4)cc3)ncnc2cc1OCCCN1CCOCC1` . State its measured %Inh.
Response: 9

Request: Consider the molecule `FC(F)(F)c1cc(Br)cc(Nc2nccc(-c3cnn4ncccc34)n2)c1` . State its measured %Inh.
Response: 29

Request: Consider the molecule `CN(c1ccc2c(c1)nc(NCc1ccc(F)cc1)n2C)c1ccnc(Nc2ccc(CS(C)(=O)=O)cc2)n1.Cl` . State its measured %Inh.
Response: 0

Request: Consider the molecule Cc1nnc(-c2ccc3occ(-c4ccc(S(C)=O)cc4)c3n2)o1 (centres unmarked) . State its measured %Inh.
Response: 0
